The compounds listed here are annotated with their Solubility.
Assay: Solubility of host materials (Table 4, solution-processed OLEDs)
Format: physicochemical
Conditions: host material; solvent not given (emission-layer mixture is dissolved in toluene)
Give your result in mg/mL as a bare value.

Before answering, review these 3 worked examples.
c1ccc(-c2cc(-c3ccccc3)cc(-c3c4ccccc4c(-c4cccc5c4ccc4cc6ccccc6cc45)c4ccccc34)c2)cc1    70
Cc1c2ccccc2cc2c1ccc1c(-c3c4ccccc4c(-c4ccccc4)c4ccccc34)cccc12    40
CC(C)Cc1c2ccccc2cc2c1ccc1c(-c3c4ccccc4c(-c4ccccc4)c4ccccc34)cccc12    45

[in] Requested field: Solubility. Item: c1ccc2cc(-c3c4ccccc4c(-c4cccc5ccccc45)c4ccccc34)ccc2c1
[out] 44
